Quick reference for relative viability among some compounds
Tested on: NCI-H2023
Assay: relative viability (nuclei count vs DMSO), 5 days (fraction); higher = more cells survive
Conditions: first compound 0.06325 µM
attribute measured: relative viability

compound="CCNC(=O)c1noc(-c2cc(C(C)C)c(O)cc2O)c1-c1ccc(CN2CCOCC2)cc1 [Luminespib] + CS(=O)(=O)CCNCc1ccc(-c2ccc3ncnc(Nc4ccc(OCc5cccc(F)c5)c(Cl)c4)c3c2)o1 [Lapatinib] (partner 2 µM)" measured_value=0.0702
compound="CCNC(=O)c1noc(-c2cc(C(C)C)c(O)cc2O)c1-c1ccc(CN2CCOCC2)cc1 [Luminespib] + O=C(CCCCCCC(=O)Nc1ccccc1)NO [Vorinostat] (partner 1 µM)" measured_value=0.0453
compound="CCNC(=O)c1noc(-c2cc(C(C)C)c(O)cc2O)c1-c1ccc(CN2CCOCC2)cc1 [Luminespib] + CC(=O)Nc1cccc(-n2c(=O)n(C3CC3)c(=O)c3c(Nc4ccc(I)cc4F)n(C)c(=O)c(C)c32)c1 [Trametinib] (partner 0.02 µM)" measured_value=0.0742
compound="CCNC(=O)c1noc(-c2cc(C(C)C)c(O)cc2O)c1-c1ccc(CN2CCOCC2)cc1 [Luminespib] + Nc1nc2[nH]cc(CCc3ccc(C(=O)N[C@@H](CCC(=O)O)C(=O)O)cc3)c2c(=O)[nH]1 [Pemetrexed] (partner 0.2 µM)" measured_value=0.071
compound="CCNC(=O)c1noc(-c2cc(C(C)C)c(O)cc2O)c1-c1ccc(CN2CCOCC2)cc1 [Luminespib] + C[C@@H](Oc1cc(-c2cnn(C3CCNCC3)c2)cnc1N)c1c(Cl)ccc(F)c1Cl [Crizotinib] (partner 1 µM)" measured_value=0.0759
